Listing of IC50 toward C-C chemokine receptor type 4 (Homo sapiens, UniProt P51679), each taken from a published source.

The examples below pair each entry with its known result.
O=C(NCc1cc(C(F)(F)F)cc(C(F)(F)F)c1)[C@@H](NCCN1CCCCC1)c1ccsc1	> 2000 nM
CCN(C(=O)OCc1ccccc1)C1CCN(CCC(C)(CN2C(=O)N[C@H](Cc3c[nH]c4ccccc34)C2=O)c2ccccc2)CC1 (some centres not stated)	> 1000 nM
CCCC[C@H]1CN(CC2CCOCC2)C(=O)OC12CCN(C1(C)CCN(C(=O)c3c(C)ncnc3C)CC1)CC2	> 50000 nM
C=CCN(C(=O)OCc1ccccc1)C1CCN(CCC(C)(CN2C(=O)N[C@H](Cc3c[nH]c4ccccc34)C2=O)c2ccccc2)CC1 (some centres not stated)	> 1000 nM
C=CCN(C(=O)OCc1ccccc1)C1CCN(CCC(CN2C(=O)N[C@H](Cc3c[nH]c4ccccc34)C2=O)c2ccccc2)CC1 (some centres not stated)	> 1000 nM

// batch mode: one IC50 value per listed entry
1. C1=C(CS/C(=N\C2CCCCC2)NC2CCCCC2)N2CCN=C2S1
2. C=CCN(C(=O)OCc1ccc([N+](=O)[O-])cc1)C1CCN(CCC(Cn2c(CC)nc3ccccc32)c2ccccc2)CC1 (configuration not stated)

Response:
["> 3000 nM", "> 1000 nM"]
